- Test System: HPV E6 #35 (cysteine-free) (HPV strain 35)
- Procedure Summary: G assay titration, PDZ 5 ug/ml
Outcome Measure: Kd (nM)
Write the number in nM without appending the unit.

[
  {
    "Binder": "GST-KIAA1526 PDZ domain 1 (other, not shown: a dimerising Fc or GST) PDSAGPGEVRLVSLRRAKAHEGLGFSIRGGSEHGVGIYVSLVEPGSLAEKEGLRVGDQILRVNDKSLARVTHAEAVKALKGSKKLVLSVYSAGRIPGGYVTNH",
    "Kd [nM]": 1000
  }
]

Looking up GST-Atrophin-1 Interacting Protein PDZ domain 2 (other) LSGATQAELMTLTIVKGAQGFGFTIADSPTGQRVKQILDIQGCPGLCEGDLIVEINQQNVQNLSHTEVVDILKDCPIGSETSLIIHRGGFF , I found its Kd recorded as 800
